Ref: ChEMBL document CHEMBL3507680

Test: Human HepG2 cell viability assay in 384 well format
Format: toxicity, cell-based
Design: dose 125 nL, time 70.5 hour; concentration not given beside the values
Conditions: HepG2 cells, read-out: Inhibition
readout type: cytotoxicity at 70.5 h (%)
Quick reminder: number only, in %, skip the unit.

INPUT: Quick check: cytotoxicity at 70.5 h of O=C1CCC(C(=O)Nc2cnn(-c3ccccc3Br)c2)N1 (stereo not given) ?
OUTPUT: -15.6

INPUT: Further, for CC(CCc1ccccc1)N1CCC(C(=O)Nc2cnccn2)CC1 (stereo not given) ?
OUTPUT: -19.2

INPUT: Further, for CCCn1ccnc1CN1CCCC(O)(CN(C)C)CC1 (stereo not given) ?
OUTPUT: -3.55

INPUT: Further, for `CCOC(=O)N1CCC(C(=O)Nc2nnc(C(F)(F)F)[nH]2)CC1` ?
OUTPUT: 5.31

INPUT: Further, for O=C(NCc1nnc2n1C(C(=O)NC1CC1)CC2)c1ccc(Cl)cc1Cl (stereo not given) ?
OUTPUT: 4.24

INPUT: Further, for `Cc1cccc(CO[C@@H]2CO[C@@]3(CCN(S(=O)(=O)N(C)C)C3)C2)n1` ?
OUTPUT: -4.3

INPUT: Further, for NC(=O)N1CCCC(C(=O)Nc2cccc(Cl)c2)C1 (stereo not given) ?
OUTPUT: -8.06

INPUT: Further, for Cc1ccc(C(=O)NC(CN2CCCC2)c2ccccc2)c(=O)[nH]1 (stereo not given) ?
OUTPUT: -3.04

INPUT: Further, for COC1COC2(CCN(CC3CC3)CC2)C1 (stereo not given) ?
OUTPUT: -12.5

INPUT: Further, for O=C(CN1CCCC1Cn1cccn1)NC1CCN(C2CC2)CC1 (stereo not given) ?
OUTPUT: -2.29

----------
Assay: Human HepG2 cell viability assay in 384 well format
Format: toxicity, cell-based
Set-up: dose 125 nL, time 70.5 hour; concentration not given beside the values
Settings: HepG2 cells, read-out: Inhibition
Give cytotoxicity at 70.5 h for every item shown.
Quick reminder: number only, in %, skip the unit.

INPUT: Quick check: cytotoxicity at 70.5 h of COc1ccc(C2=NOC(C#N)C2)cc1 (stereo unspecified) ?
OUTPUT: 8.47

INPUT: Further, for `COc1cccc2ccn(CC(=O)NCC(C)C)c12` ?
OUTPUT: 11.2

INPUT: Further, for `Cc1cnc(C(=O)N2CCC(C(=O)c3cc(F)ccc3F)CC2)cn1` ?
OUTPUT: -5.07

INPUT: Further, for CN1CC(=O)N(c2ccsc2)CC12CCN(Cc1cnn(C)c1)C2 (stereo unspecified) ?
OUTPUT: -0.306

INPUT: Further, for `O=C(CN1CCN(c2ncccn2)[C@@H]2CS(=O)(=O)C[C@@H]21)N1CCCCC1` ?
OUTPUT: -1.85

INPUT: Further, for `N#Cc1c(Cl)nsc1N1CCN(CC2CCCCC2)CC1` ?
OUTPUT: 0.793

INPUT: Further, for O=C(c1cscn1)N1CCCC12CCCN(S(=O)(=O)c1ccccc1)C2 (stereo unspecified) ?
OUTPUT: -2.41

INPUT: Further, for c1cnc(N2CCOC3(COCCN(Cc4cc[nH]n4)C3)C2)nc1 (stereo unspecified) ?
OUTPUT: -8.27

INPUT: Further, for `CNC(=O)c1ccc2c(OC)n(C)nc2c1` ?
OUTPUT: -1.72

INPUT: Further, for CCn1nnc2c1C(COCCN(C)C)CN(Cc1ccc(C)s1)C2 (stereo unspecified) ?
OUTPUT: 3.05

INPUT: Further, for `COc1ccccc1C(=O)Nc1nc2c(s1)CN(S(=O)(=O)C1CC1)CC2` ?
OUTPUT: -3.51

INPUT: Further, for `Cc1nnc2n1CCN(C(=O)CN1C(=O)CCOc3ccccc31)C2` ?
OUTPUT: -7.17

INPUT: Further, for `CCO[C@@H]1C[C@H]2CN(Cc3ccc(C)o3)CCN2C1` ?
OUTPUT: -11.9

INPUT: Further, for Cn1ccnc1C1CCCN(C(=O)c2ccc3nccnc3c2)C1 (stereo unspecified) ?
OUTPUT: 2.22

INPUT: Further, for `Cc1ccc(C)c(CSc2nnc([C@@H](N)C(C)C)o2)c1` ?
OUTPUT: -0.583

INPUT: Further, for N#Cc1cn(C2CC2)c(=O)n(CC(O)c2ccccc2C(F)(F)F)c1=O (stereo unspecified) ?
OUTPUT: -15.2

INPUT: Further, for `CCC1=NN2C(=N)/C(=C\c3cccn3-c3ccc(Cl)cc3)C(=O)N=C2S1` ?
OUTPUT: 9.55

INPUT: Further, for `CCOCC(=O)N1CCC(Cc2nnc(SC)n2C)CC1` ?
OUTPUT: -3.88

INPUT: Further, for `CC1=C(c2ccc(C)cc2)S(=O)(=O)N=C1N1CCc2ccccc21` ?
OUTPUT: -5.39

INPUT: Further, for CN(C)CCN1CC(C(=O)NCc2ccc(C#N)cc2)CC1=O (stereo unspecified) ?
OUTPUT: -1.01

INPUT: Further, for `c1ccc(CN2CC[C@H]3CO[C@H](CNc4ncccn4)[C@H]3C2)cc1` ?
OUTPUT: -5.27
